Recorded IC50 for the following compounds
target: DCN1 (DCUND1) protein PONY domain (Homo sapiens (Human), UniProt Q96GG9); assay: TR-FRET assay, DCN1 binding with FAM-labeled probe; conditions: TR FRET IC50 1 hr (nM), 1 hr after treatment with compound
Sequence (Q96GG9 60-248): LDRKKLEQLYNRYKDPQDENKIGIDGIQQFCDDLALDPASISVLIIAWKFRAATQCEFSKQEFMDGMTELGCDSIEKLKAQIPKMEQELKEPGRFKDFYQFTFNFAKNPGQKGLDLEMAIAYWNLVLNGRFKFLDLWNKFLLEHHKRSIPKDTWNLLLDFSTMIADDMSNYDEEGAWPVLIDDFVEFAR

Reported IC50 ( CCN1C(=O)[C@@H](NC(=O)c2cccc(C(F)(F)F)c2)[C@@H](c2ccc(F)cc2)c2c(C(=O)N(C)[C@H](C#N)CCN3CC4CCC(C3)O4)nn(-c3ccccc3)c21 ) = 1000 to 3000 nM

Reported IC50 ( CCN1C(=O)[C@@H](NC(=O)c2cccc(C(F)(F)F)c2)[C@@H](C2CC2)c2c(CNC#N)nn(-c3ccccc3)c21 (racemic) ) = 200 to 1000 nM

Reported IC50 ( CCN1C(=O)[C@@H](NC(=O)c2cccc(C(F)(F)F)c2)[C@@H](c2ccc(F)cc2)c2c(NC(=O)CCl)nn(-c3ccccc3)c21 (racemic) ) = 1000 to 3000 nM

---

Recorded IC50 for the following molecules
target: DCN1 (DCUND1) protein PONY domain (Homo sapiens (Human), UniProt Q96GG9); assay: TR-FRET assay, DCN1 binding with FAM-labeled probe; details: TR FRET IC50 1 hr (nM), 1 hr after treatment with compound

Answered cases to consult:
[[record]]
molecule = "CCN1C(=O)[C@@H](NC(=O)c2cccc(C(F)(F)F)c2)[C@@H](c2ccc(F)cc2)c2c(C/C=C/C(=O)N(C)C)nn(-c3ccccc3)c21 (racemic)"
endpoint_value = "1000 to 3000 nM"

[[record]]
molecule = "CCN1C(=O)[C@@H](NC(=O)c2cccc(C(F)(F)F)c2)[C@@H](c2ccc(F)cc2)c2c(CNC(=O)C(C)(C)C#N)nn(-c3ccccc3)c21 (racemic)"
endpoint_value = "1000 to 3000 nM"

[[record]]
molecule = "CCN1C(=O)[C@@H](NC(=O)c2cccc(C(F)(F)F)c2)[C@@H](c2ccc(F)cc2)c2c(CN(C#N)CCCN3CCN(C4COC4)CC3)nn(-c3ccccc3)c21"
endpoint_value = "200 to 1000 nM"

[[record]]
molecule = "CCN1C(=O)[C@@H](NC(=O)c2cccc(C(F)(F)F)c2)[C@@H](c2ccc(F)cc2)c2c(CNC(=O)C#CCN3CCOCC3)nn(-c3ccccc3)c21 (racemic)"
endpoint_value = "200 to 1000 nM"

[[record]]
molecule = "CCN1C(=O)[C@@H](NC(=O)c2nccc(C(F)(F)F)n2)[C@H](c2ccc(F)cc2)c2c(CC(=O)N[C@@H](C)C#N)nn(-c3ccccc3)c21 (single isomer, unassigned)"
endpoint_value = "1000 to 3000 nM"

[[record]]
molecule = "CCN1C(=O)[C@@H](NC(=O)c2cccc(C(F)(F)F)c2)[C@@H](c2ccc(F)cc2)c2c(CN(C#N)CCO)nn(-c3ccccc3)c21 (racemic)"
endpoint_value = "1000 to 3000 nM"

[[record]]
molecule = "CCN1C(=O)[C@H](NC(=O)c2cccc(C(F)(F)F)c2)C(C2CC2)c2c(C(=O)N3CCC[C@H]3C#N)nn(-c3ccccc3)c21 (some centres unmarked)"
endpoint_value = "1000 to 3000 nM"

[[record]]
molecule = "CCN1C(=O)[C@@H](NC(=O)c2cccc(C(F)(F)F)c2)[C@@H](c2ccc(F)cc2)c2c(CNC(=O)C3=C(C(=O)OC)CC3)nn(-c3ccccc3)c21"
endpoint_value = "200 to 1000 nM"

[[record]]
molecule = "CCN1C(=O)[C@@H](NC(=O)c2cccc(C(F)(F)F)c2)[C@@H](C2CC2)c2c(C(=O)N(C)[C@@H](C#N)CCN(C)C3COC3)nn(C3CCOCC3)c21"
endpoint_value = "200 to 1000 nM"

[[record]]
molecule = "CCN1C(=O)[C@@H](NC(=O)c2cccc(C(F)(F)F)c2)[C@@H](c2ccc(F)cc2)c2c(CNC(=O)/C(C)=C/C(=O)OC)nn(-c3ccccc3)c21 (racemic)"
endpoint_value = "1000 to 3000 nM"


Reported IC50 ( C=C(C)S(=O)(=O)NCc1nn(-c2ccccc2)c2c1[C@H](c1ccc(F)cc1)[C@H](NC(=O)c1cccc(C(F)(F)F)c1)C(=O)N2CC (racemic) ) = 200 to 1000 nM

---

Recorded IC50 for the following molecules
biological target: DCN1 (DCUND1) protein PONY domain (Homo sapiens (Human), UniProt Q96GG9); experiment: TR-FRET assay, DCN1 binding with FAM-labeled probe; conditions: TR FRET IC50 1 hr (nM), 1 hr after treatment with compound

Answered cases to consult:
[[record]]
molecule = "CCN1C(=O)[C@H](NC(=O)c2cccc(C(F)(F)F)c2)[C@H](c2ccc(F)cc2)c2c(C(=O)N(CC#N)CC(=O)OC)nn(-c3ccccc3)c21 (stereo in doubt)"
endpoint_name = "IC50"
endpoint_value = "200 to 1000 nM"

[[record]]
molecule = "CCN1C(=O)[C@@H](NC(=O)c2cccc(C(F)(F)F)c2)[C@H](c2ccc(F)cc2)c2c(CNC(=O)/C=C(\\C)C(=O)OC)nn(-c3ccccc3)c21"
endpoint_name = "IC50"
endpoint_value = "200 to 1000 nM"

[[record]]
molecule = "CCN1C(=O)[C@@H](NC(=O)c2cccc(C(F)(F)F)c2)[C@@H](c2ccc(F)cc2)c2c(C(=O)N3CCC[C@H]3C#N)nn(-c3ccccc3)c21 [Compound I-278]"
endpoint_name = "IC50"
endpoint_value = "200 to 1000 nM"

[[record]]
molecule = "CCN1C(=O)[C@H](NC(=O)c2cccc(C(F)(F)F)c2)[C@H](c2ccc(F)cc2)c2c(CNC(=O)C3=CCN(C)C3)nn(-c3ccccc3)c21 (racemic)"
endpoint_name = "IC50"
endpoint_value = "200 to 1000 nM"

[[record]]
molecule = "CCN1C(=O)[C@@H](NC(=O)CC2=C(C)Cc3ccc(F)cc32)[C@@H](C2CC2)c2c(C(=O)N3[C@H](C#N)C[C@H]4C[C@H]43)nn(C3CCOCC3)c21"
endpoint_name = "IC50"
endpoint_value = "1000 to 3000 nM"

[[record]]
molecule = "C=C(Cc1nn(-c2ccccc2)c2c1[C@H](c1ccc(F)cc1)[C@H](NC(=O)c1cccc(C(F)(F)F)c1)C(=O)N2CC)C(=O)O (racemic)"
endpoint_name = "IC50"
endpoint_value = "1000 to 3000 nM"

[[record]]
molecule = "CCN1C(=O)[C@@H](NC(=O)C2CC(C)C2)[C@@H](C2CC2)c2c(C(=O)N3[C@H](C#N)C[C@H]4C[C@H]43)nn(C3CCOCC3)c21 (some centres unmarked)"
endpoint_name = "IC50"
endpoint_value = "1000 to 3000 nM"

[[record]]
molecule = "CCN1C(=O)[C@H](NC(=O)c2cccc(C(F)(F)F)c2)[C@H](c2ccc(F)cc2)c2c(C(=O)N3CCC[C@H]3C#N)nn(-c3cccc(OCCCN(C)C4COC4)c3)c21"
endpoint_name = "IC50"
endpoint_value = "1000 to 3000 nM"

[[record]]
molecule = "CCN1C(=O)[C@@H](NC(=O)c2cccc(C(F)(F)F)c2)[C@@H](c2ccc(F)cc2)c2c(NC(=O)C(F)Cl)nn(-c3ccccc3)c21 (mixture of isomers)"
endpoint_name = "IC50"
endpoint_value = "200 to 1000 nM"

[[record]]
molecule = "CCN1C(=O)[C@@H](NC(=O)c2cccc(C(F)(F)F)c2)[C@@H](c2ccc(F)cc2)c2c(C(=O)N(C)[C@@H](C#N)CCO)nn(-c3ccccc3)c21 (relative stereo)"
endpoint_name = "IC50"
endpoint_value = "≤ 200 nM"


Reported IC50 ( CCN1C(=O)[C@@H](NC(=O)c2cccc(C(F)(F)F)c2)[C@@H](c2ccc(F)cc2)c2c(CNC(=O)/C=C/C(=O)NCCN(C)C)nn(-c3ccccc3)c21 (racemic) ) = 200 to 1000 nM

Reported IC50 ( CCN1C(=O)[C@@H](NC(=O)CC#N)[C@@H](C2CC2)c2c(C(=O)N3[C@H](C#N)C[C@H]4C[C@H]43)nn(C3CCOCC3)c21 ) = 1000 to 3000 nM

---

test system: Cullin-3 (CUL3) neddylation; assay: AlphaLISA assay for Cullin-3 (CUL3) neddylation in TF 1 cells; format: cell-based; conditions: Homo sapiens, TF-1, 3 h, 3 hours treatment
endpoint_name: IC50

[[record]]
compound = "CCN1C(=O)[C@@H](NC(=O)c2cccc(C(F)(F)F)c2)[C@@H](c2ccc(F)cc2)c2c(C(=O)N3CCS(=O)(=O)CC3C#N)nn(-c3ccccc3)c21 (stereo partly drawn)"
target_desc = "Cullin-3 (CUL3) neddylation"
endpoint_value = "≤ 100 nM"

[[record]]
compound = "CCN1C(=O)[C@@H](NC(=O)c2cccc(C(F)(F)F)c2)[C@@H](C2CCCC2)c2c(C(=O)N(CC#N)C3CC3)nn(C3CCOCC3)c21"
target_desc = "Cullin-3 (CUL3) neddylation"
endpoint_value = "100 to 1000 nM"


Observed IC50 on Cullin-3 (CUL3) neddylation, entry CCN1C(=O)[C@@H](NC(=O)c2cccc(C(F)(F)F)c2)[C@@H](c2ccc(F)cc2)c2c(CN(C#N)CCN(C)C)nn(-c3ccccc3)c21 (racemic) , equals ≤ 100 nM
